Source listed as the supplement of paper PMC9694430.

Each entry below carries its recorded thermal shift delta Tm.
# Test system: LOC_OS01G52050-cb004
# Sequence (as listed by the source): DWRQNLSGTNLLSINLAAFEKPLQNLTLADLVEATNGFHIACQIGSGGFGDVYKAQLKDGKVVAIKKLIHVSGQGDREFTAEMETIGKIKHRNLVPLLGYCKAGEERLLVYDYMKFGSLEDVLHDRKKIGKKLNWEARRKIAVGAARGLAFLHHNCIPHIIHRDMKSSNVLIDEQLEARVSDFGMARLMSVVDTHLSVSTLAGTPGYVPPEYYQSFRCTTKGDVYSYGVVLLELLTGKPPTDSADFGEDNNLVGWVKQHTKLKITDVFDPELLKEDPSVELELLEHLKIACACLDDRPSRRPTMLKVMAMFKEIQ
# METHOD_SUMMARY: thermal shift delta Tm vs DMSO control; higher = stronger stabilization (binding);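 also: purified Escherichia coli-expressed rice kinase domain construct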
# RUN_CONDITIONS: 12.5 µM; protein concentration 2 µM
All answers are understood in °C, so give the number only.

Reference set, count: 9
Please provide the recorded thermal shift delta Tm for O=C(NOC[C@H](O)CO)c1ccc(F)c(F)c1Nc1ccc(I)cc1F , tested on LOC_OS01G52050-cb004.
0.59

Please provide the recorded thermal shift delta Tm for Cc1cc(Nc2ncnc3ccc(-c4ccc(CNCCS(C)(=O)=O)o4)cc23)ccc1Oc1ccn2ncnc2c1 , tested on LOC_OS01G52050-cb004.
1.36

Please provide the recorded thermal shift delta Tm for CC(C)(C)c1cc(/C=C(\C#N)C(N)=S)cc(C(C)(C)C)c1O , tested on LOC_OS01G52050-cb004.
4.16

Please provide the recorded thermal shift delta Tm for COC(=O)c1ccc2c(c1)NC(=O)/C2=C(\Nc1ccc(N(C)C(=O)CN2CCN(C)CC2)cc1)c1ccccc1 , tested on LOC_OS01G52050-cb004.
1.07

Please provide the recorded thermal shift delta Tm for COc1cc2ncnc(Sc3nnc(C)s3)c2cc1OC , tested on LOC_OS01G52050-cb004.
0.91

Please provide the recorded thermal shift delta Tm for CCN(CC)CCCCNc1ncc2cc(-c3cc(OC)cc(OC)c3)c(NC(=O)NC(C)(C)C)nc2n1 , tested on LOC_OS01G52050-cb004.
0.11

Please provide the recorded thermal shift delta Tm for CCn1c2ccccc2c2cc(Nc3ccnc(NCCCN4CCOCC4)n3)ccc21 , tested on LOC_OS01G52050-cb004.
0.07

Please provide the recorded thermal shift delta Tm for CCCCNc1ncc(-c2ccc(CN3CCOCC3)cn2)c(NC2CCC(O)CC2)n1 (stereo not given) , tested on LOC_OS01G52050-cb004.
2.9

Please provide the recorded thermal shift delta Tm for Nc1nc(Nc2ccc(S(N)(=O)=O)cc2)nn1C(=O)c1c(F)cccc1F , tested on LOC_OS01G52050-cb004.
5.43

---
Please provide the recorded thermal shift delta Tm for CO[C@H]1C[C@@H]2CC[C@@H](C)[C@@](O)(O2)C(=O)C(=O)N2CCCC[C@H]2C(=O)O[C@H]([C@H](C)C[C@@H]2CC[C@@H](OCCO)[C@H](OC)C2)CC(=O)[C@H](C)/C=C(\C)[C@@H](O)[C@@H](OC)C(=O)[C@H](C)C[C@H](C)/C=C/C=C/C=C/1C [Everolimus (RAD001)] , tested on LOC_OS01G52050-cb004.
0.35

---

# Tested on: LOC_OS07G06570-cb004
# METHOD_SUMMARY: thermal shift delta Tm vs DMSO control; higher = stronger stabilization (binding)
# RUN_CONDITIONS: 12.5 µM; protein concentration 2 µM
RECORDED_ENDPOINT: thermal shift delta Tm (°C)
All answers are understood in °C, so give the number only.

Please provide the recorded thermal shift delta Tm for CCN(CC)CCCC(C)Nc1nc(C)cc(Nc2ccc3nc(C)cc(N)c3c2)n1 (stereo unspecified) , tested on LOC_OS07G06570-cb004.
1.53

Please provide the recorded thermal shift delta Tm for Cn1cc(-c2ccc3nnc(C(F)(F)c4ccc5ncccc5c4)n3n2)cn1 , tested on LOC_OS07G06570-cb004.
1.14

Please provide the recorded thermal shift delta Tm for COc1cc2c(cc1OC)[C@@H]1C(=O)c3ccc4c(c3O[C@@H]1CO2)C=CC(C)(C)O4 , tested on LOC_OS07G06570-cb004.
0.49

---
Please provide the recorded thermal shift delta Tm for Cc1ccc(CNc2ncnc3ccc(-c4ccc(CO)o4)cc23)o1 , tested on LOC_OS07G06570-cb004.
1.5

Please provide the recorded thermal shift delta Tm for CNC(=O)Nc1ccc(-c2nc(N3CC4CCC(C3)O4)c3cnn(C4CCC5(CC4)OCCO5)c3n2)cc1 , tested on LOC_OS07G06570-cb004.
0.67

Please provide the recorded thermal shift delta Tm for S=C(NCc1ccc2c(c1)OCO2)N1CCN(c2ncnc3c2oc2ccccc23)CC1 , tested on LOC_OS07G06570-cb004.
0.32

---

# Test system: LOC_OS01G13800-cb001
# METHOD_SUMMARY: thermal shift delta Tm vs DMSO control; higher = stronger stabilization (binding)
# RUN_CONDITIONS: 12.5 µM; protein concentration 2 µM
Just so you know, the groups by thermal shift delta Tm go like this: low (below -0.2 °C), intermediate (-0.2 °C to below 0.2 °C), high (0.2 °C or more)

Classify this compound: CC1(C)C=Cc2c(ccc3c2OC[C@@H](c2ccc(O)cc2O)C3)O1
intermediate

---
Classify this compound: Cc1cc(C)c(/C=C2\C(=O)Nc3ccccc32)[nH]1 [Semaxanib (SU5416)]
low

---

# System: LOC_OS05G30820-cb001
# METHOD_SUMMARY: thermal shift delta Tm vs DMSO control; higher = stronger stabilization (binding)
# RUN_CONDITIONS: 12.5 µM; protein concentration 2 µM
RECORDED_ENDPOINT: thermal shift delta Tm
# output: number + unit

Reference set, count: 5
Could you share which thermal shift delta Tm value was measured for CN1CC[C@H](c2c(O)cc(O)c3c(=O)cc(-c4ccccc4Cl)oc23)[C@H](O)C1 [Flavopiridol (Alvocidib)] ?
0.85 °C

Could you share which thermal shift delta Tm value was measured for COCC(=O)NC/C=C/c1ccc2ncnc(Nc3ccc(Oc4ccc(C)nc4)c(C)c3)c2c1 ?
0.4 °C

Could you share which thermal shift delta Tm value was measured for CC(C)CC(=O)Nc1n[nH]c2c1CN(C(=O)C1CCN(C)CC1)C2(C)C ?
0.53 °C

Could you share which thermal shift delta Tm value was measured for CCNC(=O)Nc1ccc(-c2nc(N3CCOC[C@@H]3C)c3c(n2)C(C)(C)S(=O)(=O)C3)cc1 ?
0.2 °C

Could you share which thermal shift delta Tm value was measured for Cn1c2ccccc2c2c3c(c4c5ccccc5n(CCC#N)c4c21)CNC3=O ?
1.15 °C

# input for lookup
Could you share which thermal shift delta Tm value was measured for CCOC(=O)c1cnc2ccc(-c3cncc(NS(=O)(=O)c4ccccc4)c3)cn12 ?
0.47 °C

---

# Tested on: LOC_OS01G67340-cb003
# METHOD_SUMMARY: thermal shift delta Tm vs DMSO control; higher = stronger stabilization (binding)
# RUN_CONDITIONS: 12.5 µM; protein concentration 2 µM
Structures can show the parent of a compound that is named as a salt.
Each entry below carries its recorded thermal shift delta Tm.
All answers are understood in °C, so give the number only.

Reference set, count: 5
Could you share which thermal shift delta Tm value was measured for CCNC(=O)Nc1ccc(-c2nc3c(c(N4CCOC[C@@H]4C)n2)CCN(C2COC2)C3)cc1 ?
0.16

Could you share which thermal shift delta Tm value was measured for CO[C@H]1CC[C@H](N2C(=O)CNc3ncc(-c4ccc(C(C)(C)O)nc4)nc32)CC1 ?
0.09

Could you share which thermal shift delta Tm value was measured for Cc1cnc(Nc2ccc(OCCN3CCCC3)cc2)nc1Nc1cccc(S(=O)(=O)NC(C)(C)C)c1 ?
0.84

Could you share which thermal shift delta Tm value was measured for CSc1cccc(Nc2ncc3cc(-c4c(Cl)cccc4Cl)c(=O)n(C)c3n2)c1 ?
0.72

Could you share which thermal shift delta Tm value was measured for Cc1cc(Nc2cc(N)ncn2)c(=O)n2c1C(=O)NC21CCCCC1 ?
0.19

---
Could you share which thermal shift delta Tm value was measured for O=c1cc(N2CCOCC2)oc2c(-c3ccc4c(c3)OCCO4)csc12 ?
0.35

Could you share which thermal shift delta Tm value was measured for Cc1cc(Nc2cc(CN3CCOCC3)c3nc(C)c(Cc4ccc(Cl)cc4F)n3n2)n[nH]1 ?
1.73

Could you share which thermal shift delta Tm value was measured for CNS(=O)(=O)C[C@H]1CC[C@H](N(C)c2[nH]cnc3nccc2-3)CC1 ?
2.18

Could you share which thermal shift delta Tm value was measured for COc1ccccc1-c1cc(Nc2cccc(CS(N)(=O)=O)c2)ncn1 ?
0.81

Could you share which thermal shift delta Tm value was measured for CN1CCN(C2CCN(C(=O)Nc3cc(Oc4ccc(NC(=O)C5(C(=O)Nc6ccc(F)cc6)CC5)c(F)c4)ccn3)CC2)CC1 [Golvatinib (E7050)] ?
0.24

Could you share which thermal shift delta Tm value was measured for Nc1nc2cc(-c3ccc4ncc(C(=O)N5CCOCC5)n4c3)ccc2o1 ?
1.26

Could you share which thermal shift delta Tm value was measured for c1cc(-c2cnn3cc(-c4ccc(OCCN5CCCCC5)cc4)cnc23)ccn1 [Dorsomorphin 2HCl] ?
6.09

Could you share which thermal shift delta Tm value was measured for O=C(Nc1cccc(Cl)c1)Nc1ncc(CCNc2ncnc3ccsc23)s1 [SNS-314 Mesylate] ?
0.53

Could you share which thermal shift delta Tm value was measured for CCn1c(N)c(C(=O)NC)c(=O)c2ccc(C#CC(C)(O)COC)nc21 (stereo not drawn) ?
0.38

Could you share which thermal shift delta Tm value was measured for O=C(c1cccc(Cl)c1F)N1CCN(Cc2cccc(Nc3nccs3)n2)CC1 ?
0.2

Could you share which thermal shift delta Tm value was measured for O=C1NC(=O)/C(=C/c2ccc(-c3ccc(F)cc3O)o2)S1 ?
5.05

Could you share which thermal shift delta Tm value was measured for c1nc2c(NC3CCCCC3)nc(Nc3ccc(N4CCOCC4)cc3)nc2[nH]1 ?
3.68

Could you share which thermal shift delta Tm value was measured for CCc1ccc(/C=C2/SC(=S)NC2=O)cc1 ?
0.34

Could you share which thermal shift delta Tm value was measured for CNC(=O)c1ccccc1Nc1cc(Nc2ccc(N3CCOCC3)cc2OC)ncc1C(F)(F)F ?
3.13

Could you share which thermal shift delta Tm value was measured for O=C(NOC[C@H](O)CO)c1ccc(F)c(F)c1Nc1ccc(I)cc1F ?
0.04

Could you share which thermal shift delta Tm value was measured for COc1ccc(/C=C/C(=O)C2(C(=O)/C=C/c3ccc(OC)c(OC)c3)CCCCC2)cc1OC ?
0.3

Could you share which thermal shift delta Tm value was measured for C[C@@H]1CN(C(=O)c2ccc(NC(=O)c3cc(O[C@H](C)c4c(Cl)ccc(F)c4Cl)c(N)nn3)cc2)C[C@H](C)N1 ?
7.25

Could you share which thermal shift delta Tm value was measured for CN1CCN(Cc2ccc(NC(=O)Nc3ccc(Oc4ccnc(N)n4)cc3)cc2C(F)(F)F)CC1 ?
0.95
